# system under test: T1, IL1RAP on HEK-Blue IL1β / HEK-Blue IL33 reporter cells (UniProt Q9NPH3 21-570, limits assumed)
# T1 sequence (looked up): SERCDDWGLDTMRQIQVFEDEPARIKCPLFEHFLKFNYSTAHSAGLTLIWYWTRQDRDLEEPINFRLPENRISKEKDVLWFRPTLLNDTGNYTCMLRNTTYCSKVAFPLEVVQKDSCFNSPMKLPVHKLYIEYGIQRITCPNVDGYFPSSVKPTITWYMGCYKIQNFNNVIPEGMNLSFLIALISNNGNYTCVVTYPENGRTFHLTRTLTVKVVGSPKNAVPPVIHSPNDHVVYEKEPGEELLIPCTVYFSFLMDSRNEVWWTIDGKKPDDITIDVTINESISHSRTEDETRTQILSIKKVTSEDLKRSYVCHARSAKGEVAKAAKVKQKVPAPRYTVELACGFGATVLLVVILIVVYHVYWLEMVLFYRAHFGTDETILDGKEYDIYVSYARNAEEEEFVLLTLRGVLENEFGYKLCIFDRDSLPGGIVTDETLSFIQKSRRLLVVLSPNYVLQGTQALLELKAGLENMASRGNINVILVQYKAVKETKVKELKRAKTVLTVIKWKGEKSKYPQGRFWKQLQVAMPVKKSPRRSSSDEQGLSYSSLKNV
# protocol description: cell-based or functional assay
metric name: IC50, HEK-BlueIL1β NFκB Reporter Assay

Here's what some known entries look like.
- STLX2029 (antibody, V domains shown, Purified from hybridoma of immunized Alivamab mice; intact IgG; captured on anti-mouse IgG Fc sensors in Octet; kappa light chain; also called 74804_29D13A) VH: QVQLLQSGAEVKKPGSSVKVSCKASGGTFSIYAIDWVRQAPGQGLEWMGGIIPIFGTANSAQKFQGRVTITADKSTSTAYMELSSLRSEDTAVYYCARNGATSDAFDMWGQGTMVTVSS VL: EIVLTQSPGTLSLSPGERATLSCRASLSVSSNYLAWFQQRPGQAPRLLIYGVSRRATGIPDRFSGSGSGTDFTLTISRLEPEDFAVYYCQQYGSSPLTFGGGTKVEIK: 1.85e-09 M (implied; unit not printed)
- STLX2018 (antibody, V domains shown, Purified from hybridoma of immunized Alivamab mice; intact IgG; captured on anti-mouse IgG Fc sensors in Octet; kappa light chain; also called 74804_18L05A) VH: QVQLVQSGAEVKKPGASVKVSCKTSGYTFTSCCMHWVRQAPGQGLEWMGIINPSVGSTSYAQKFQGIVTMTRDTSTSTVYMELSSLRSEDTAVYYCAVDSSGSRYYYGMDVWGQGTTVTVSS VL: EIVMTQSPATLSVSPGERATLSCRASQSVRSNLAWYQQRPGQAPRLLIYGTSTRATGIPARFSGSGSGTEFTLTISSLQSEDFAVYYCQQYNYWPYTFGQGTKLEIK: 1.73e-09 M (implied; unit not printed)

Continue with the binder presented below.
Looking for the measured IC50, HEK-BlueIL1β NFκB Reporter Assay of STLX2051 (antibody, V domains shown, Purified from hybridoma of immunized Alivamab mice; intact IgG; captured on anti-mouse IgG Fc sensors in Octet; kappa light chain; also called 74804_51C10A) VH: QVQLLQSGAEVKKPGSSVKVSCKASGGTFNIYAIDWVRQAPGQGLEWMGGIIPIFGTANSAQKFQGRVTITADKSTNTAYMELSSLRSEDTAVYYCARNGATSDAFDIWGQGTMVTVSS VL: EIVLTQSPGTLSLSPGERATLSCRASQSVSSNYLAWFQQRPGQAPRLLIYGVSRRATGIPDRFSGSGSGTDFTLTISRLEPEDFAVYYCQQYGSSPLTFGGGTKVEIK , can you help? 2.5e-09 M (implied; unit not printed)
